- Test system: CCRF-CEM leukemia
- Assay Method Text: NCI tumour cell line growth inhibition, 48 h
Catalogue of molecules with associated TGI

- Molecule: "C[C@]12CC[C@@H]3c4ccc(O)cc4CC[C@H]3[C@@H]1CC[C@@H]2NS(=O)(=O)c1cccc(Br)c1"
  TGI: "20.3 µM"
- Molecule: "COc1cc(CNC(=O)CCCCCCCC/C=C/Br)ccc1O"
  TGI: "> 10 µM"
- Molecule: "CC(C)NC(C)Cc1ccccc1 (stereo not drawn)"
  TGI: "> 100 µM"

###

- Test system: A498 renal
- Assay Method Text: NCI tumour cell line growth inhibition, 48 h; in the data active = GI50 below about 0.43 µM; inactive = the rest
Where a SMILES comes first, the peptide text is derived from it. [ ]: non-standard residue; d: D form. 2Nal = N[CH](Cc1ccc2ccccc2c1)C(=O)O
Possible outcomes: TRUE (active), FALSE (inactive)

- Compound: "CC(NC(=O)C(N)Cc1ccccc1)C(=O)NC(Cc1ccc(O)cc1)C(=O)NC(Cc1c[nH]c2ccccc12)C(=O)NC(CCCCN)C(=O)NC(C(=O)NC(C)C(=O)NC(Cc1ccc2ccccc2c1)C(N)=O)C(C)C (centres undefined) (H-FAYWKVA[2Nal]-NH2; configuration not given here)"
  Subject Of Test: "A498 renal"
  Label Class: "FALSE"
- Compound: "C=CCSc1n[nH]c(-c2cccs2)n1"
  Subject Of Test: "A498 renal"
  Label Class: "FALSE"
- Compound: "Cc1ccc(NC2=C(Cl)C(=O)c3nc(C)ccc3C2=O)cc1"
  Subject Of Test: "A498 renal"
  Label Class: "TRUE"
- Compound: "O=C(c1cccs1)c1c(C(F)(F)F)n([O-])c2cc(F)c(F)cc2[n+]1=O"
  Subject Of Test: "A498 renal"
  Label Class: "FALSE"

###

- Tested on: HL-60(TB) leukemia
- Assay Method Text: NCI tumour cell line growth inhibition, 48 h
So basically: TGI at 40 µM or higher? That is fulfilled. Lower than 40 µM? That is not fulfilled.

- Compound: "O=C(C#Cc1c[nH]c(=O)[nH]c1=O)c1ccccc1"
  Label Class: "not fulfilled"
- Compound: "O=C(N/N=C/c1cc2ccccc2c2ccccc12)c1cc(O)c(O)c(O)c1"
  Label Class: "not fulfilled"
- Compound: "Cc1sc(N=Nc2c(O)[nH]c3ccccc23)nc1-c1ccccc1"
  Label Class: "not fulfilled"
- Compound: "O=C(c1nsc(Cl)c1Cl)N1CCCCC1"
  Label Class: "fulfilled"
- Compound: "CC(=O)O[C@H]1CCC2[C@@H]3CCC4C(=O)c5oncc5C[C@]4(C)C3CC[C@@]21C (stereo partly specified)"
  Label Class: "fulfilled"
- Compound: "CCOC(=O)c1c(C)c2c(n1C)CSc1cc(S(=O)(=O)c3ccccc3)c(=O)[nH]c1-2"
  Label Class: "fulfilled"
- Compound: "Cc1ccc(C(=O)/C=C/c2ccccc2Cl)cc1"
  Label Class: "fulfilled"
- Compound: "O=C(O)/C(O)=C1/C=C(c2ccccc2)c2ccccc21"
  Label Class: "fulfilled"
- Compound: "COc1cc2c(cc1OC)-c1c(cc(OC)c(OC)c1OC)C2=O"
  Label Class: "fulfilled"
- Compound: "O=C(O)C1Cc2nc[nH]c2CN1 (stereo unspecified)"
  Label Class: "fulfilled"
- Compound: "Cc1[nH]n(-c2ccccc2)c(=S)c1C(=O)c1ccccc1"
  Label Class: "fulfilled"
